Data origin: ChEMBL document CHEMBL5303711

CC50 overview
- experiment: Cytotoxicity activity against human HepG2 cells assessed by CellTiter-Glo luminescent cell viability assay.
- Assay type: toxicity, cell-based
- Set-up: assay stage confirmatory assay, source tissue liver
- condition.parameters: HepG2 cells, read-out: IC50 relative
The source made the active and inactive calls. The rule behind the calls is not given here.

Check out these entries, answers already filled in.
Cc1ccc(-n2sc3ccccc3c2=O)cc1    8.7 µM (active)
CC[C@H]1CC[C@@H](C)N(C(=O)c2nc(C3CC3)n3ccccc23)C1    7.5 µM (active)
CCN(CC)C(=S)S [DITIOCARB SODIUM]    6.6 µM (active)

What does the data say about its CC50? Entry: Cc1cc(NC(=O)N[C@H]2CCN(CC3CCCC3)C2)cc(N2CCN(C)CC2)c1
9.3 µM (active)
